system: RXF 393; test: NCI tumour cell line growth inhibition, 48 h
Activity calls are given as the source filed them. Cut-off read from the data, not from the text of the source: active = GI50 up to about 1.1 µM and inactive = higher.
EXPERIMENTAL_ENDPOINT: GI50

Example entries and their recorded answers appear below.
1. COC(=O)CC[N+]1=CCC(c2ccccc2)(c2ccccc2)O1 ... > 100 µM (inactive)
2. O=C1C(O)=C(C(CCc2ccccc2)C2=C(O)C(=O)c3ccccc3C2=O)C(=O)c2ccccc21 ... > 100 µM (inactive)
3. O=[N+]([O-])c1ccc(N/N=C/CC(O)(C(F)(F)F)C(F)(F)F)c([N+](=O)[O-])c1 ... 5.35 µM (inactive)
4. OCCN(CCO)c1ncnc2c1sc(=S)n2-c1ccccc1 ... > 100 µM (inactive)

Kindly review the next molecule as well.
Record O=C1CCC2(c3ccccc3)Nc3ccc(Cl)cc3N12 (stereo not given) . Reported GI50: > 100 µM (inactive)
